Provenance of the data: PubChem BioAssay (NCI)

test system: KM12 colon; assay: NCI tumour cell line growth inhibition, 48 h; in the data active = GI50 below about 0.43 µM; inactive = the rest
Hi there, use one of these labels in your reply, thanks! active, inactive

For COC1/C=C/OC2(C)Oc3c(C)c(O)c4c(O)c(c(C=NOC(c5ccccc5)c5ccccc5)c(O)c4c3C2=O)NC(=O)/C(C)=C/C=C/C(C)C(O)C(C)C(O)C(C)C(OC(C)=O)C1C (stereo not drawn) , which call appears in the assay record? inactive

For Cn1cc(-c2ccc3nnc(C(F)(F)c4ccc5ncccc5c4)n3n2)cn1 , which call appears in the assay record? inactive

For COc1cc(/C=C2\CC3C4CCC5=CC(=O)CC[C@]5(C)C4CC[C@]3(C)C2=O)ccc1OCCN1CCCCC1 (stereo partly drawn) , which call appears in the assay record? inactive

For C=CCCCC(O)c1ccc(C(O)c2cnc3ccccc3c2)o1 (stereo not drawn) , which call appears in the assay record? inactive

For CC/C(=C(/CC)c1ccc(O)cc1)c1ccc(O)cc1 , which call appears in the assay record? inactive

For Oc1[nH]c2ccccc2c1/C=c1/ccc2c(c1)N=C(c1cc(F)cc(F)c1)N=2 , which call appears in the assay record? inactive

For Cn1c(=O)c(-c2c(Cl)cccc2Cl)cc2cnc(Nc3ccc(I)cc3)nc21 , which call appears in the assay record? active

For CS(=O)(=O)c1ccc(-c2cnc(NCc3ccco3)n3cnnc23)cc1 , which call appears in the assay record? inactive

For CCN(CC)CCNC(=O)C(Cl)=C1C(Cl)=C(Cl)C(Cl)=C1Cl , which call appears in the assay record? inactive

For O=C(c1ccccc1)c1c2n(c3c1cc(O)c1ccccc13)CCN2 , which call appears in the assay record? inactive

For O=C1Nc2c(ccc(Cl)c2Cl)/C1=C\c1cc(C(F)(F)F)cc(C(F)(F)F)c1 , which call appears in the assay record? inactive

For NC(CS)C(=O)NCCNc1ccc(NCCNC(=O)C(N)CS)c2c1C(=O)c1c(O)ccc(O)c1C2=O (stereo not drawn) , which call appears in the assay record? active

For CCOC(=O)Nc1cc(-c2ccc(C)c(NS(C)(=O)=O)c2)nn2c(C)nnc12 , which call appears in the assay record? inactive
